# assay.summary: Study .3: single dose, cross-over, food effect study in healthy volunteers, pharmacokinetic parameters
# Assay type: in vivo, human
# recorded.conditions: human, plasma, oral, 50 mg, 50 mg single dose, Study .3/fasted; read-out: AUC0-inf gMean
readout.label: AUC(0-inf) (µM·h)
The response must be a number in µM·h with no trailing unit.

Query :: What measured AUC(0-inf) goes with `OC[C@H]1O[C@@H](c2ccc(Cl)c(Cc3ccc(O[C@H]4CCOC4)cc3)c2)[C@H](O)[C@@H](O)[C@@H]1O` ?
Result :: 8.31

###

# assay.summary: Pharmacokinetic profile in fasting humans, ranges over Studies .1 to .5
# Format: in vivo
# recorded.conditions: human, plasma, oral, 10 mg, multiple doses of 10.0 mg, read-out: AUCτ,ss
readout.label: AUC

Query :: What measured AUC goes with `OC[C@H]1O[C@@H](c2ccc(Cl)c(Cc3ccc(O[C@H]4CCOC4)cc3)c2)[C@H](O)[C@@H](O)[C@@H]1O` ?
Result :: 1.35 to 2.6 µM·h

###

# assay.summary: Study .1: single dose study in healthy volunteers, pharmacokinetic parameters
# Type: in vivo, human
# recorded.conditions: human, plasma, oral, 10 mg, 10 mg single dose, Study .1, fasted; read-out: tmax gMean
readout.label: Tmax (h)
The response must be a number in h with no trailing unit.

Query :: What measured Tmax goes with `OC[C@H]1O[C@@H](c2ccc(Cl)c(Cc3ccc(O[C@H]4CCOC4)cc3)c2)[C@H](O)[C@@H](O)[C@@H]1O` ?
Result :: 1.38

###

# assay.summary: Pharmacokinetic profile in fasting humans, ranges over Studies .1 to .5
# Type: in vivo
# recorded.conditions: human, plasma, oral, 50 mg, dose of 50.0 mg, read-out: geometric mean AUC
readout.label: AUC

Query :: What measured AUC goes with `OC[C@H]1O[C@@H](c2ccc(Cl)c(Cc3ccc(O[C@H]4CCOC4)cc3)c2)[C@H](O)[C@@H](O)[C@@H]1O` ?
Result :: 8.31 to 8.46 µM·h

###

# assay.summary: Study .1: single dose study in healthy volunteers, pharmacokinetic parameters
# Assay type: in vivo, human
# recorded.conditions: 2.5 mg single dose, Study .1, fasted; read-out: Cmax Min
readout.label: Cmax (nM)
The response must be a number in nM with no trailing unit.

Query :: What measured Cmax goes with OC[C@H]1O[C@@H](c2ccc(Cl)c(Cc3ccc(O[C@H]4CCOC4)cc3)c2)[C@H](O)[C@@H](O)[C@@H]1O [Compound (I.9)] ?
Result :: 42.8

###

# assay.summary: Study .2: multiple rising dose trial in diabetic patients, once daily for 8 days, pharmacokinetic parameters
# Format: in vivo, human
# recorded.conditions: human, plasma, oral, 2.5 mg, 2.5 mg once daily, steady state, Study .2, fasted; read-out: Cmax,ss Median
readout.label: Cmax (nM)
The response must be a number in nM with no trailing unit.

Query :: What measured Cmax goes with `OC[C@H]1O[C@@H](c2ccc(Cl)c(Cc3ccc(O[C@H]4CCOC4)cc3)c2)[C@H](O)[C@@H](O)[C@@H]1O` ?
Result :: 72

###

# assay.summary: Study .5: single dose study in healthy Japanese volunteers, pharmacokinetic parameters
# Assay type: in vivo, human
# recorded.conditions: 25 mg single dose, Study .5, fasted; read-out: Cmax Min
readout.label: Cmax (µM)
The response must be a number in µM with no trailing unit.

Query :: What measured Cmax goes with `OC[C@H]1O[C@@H](c2ccc(Cl)c(Cc3ccc(O[C@H]4CCOC4)cc3)c2)[C@H](O)[C@@H](O)[C@@H]1O` ?
Result :: 0.605

###

# assay.summary: Study .4: 4-week treatment of diabetic patients, once daily, pharmacokinetic parameters
# Assay type: in vivo, human
# recorded.conditions: human, plasma, oral, 10 mg, 10 mg single dose, Study .4, fasted; read-out: Cmax gMean
# Experimental: 5. Pharmacokinetic Parameters The pharmacokinetic parameters of pharmaceutical compositions and pharmaceutical dosage forms are assessed in healthy volunteer and patient populations. […] For the quantification of plasma concentrations of the active ingredient, 2.7 mL of blood was collected and transferred into an EDTA (ethylendiaminetetraacetic acid)-anticoagulant blood drawing tube. […] Concentrations of active substance in EDTA human plasma samples were quantitated using a HPLC/MS/MS method. […]
readout.label: Cmax (nM)
The response must be a number in nM with no trailing unit.

Query :: What measured Cmax goes with `OC[C@H]1O[C@@H](c2ccc(Cl)c(Cc3ccc(O[C@H]4CCOC4)cc3)c2)[C@H](O)[C@@H](O)[C@@H]1O` ?
Result :: 291

###

# assay.summary: Pharmacokinetic profile in fasting humans, ranges over Studies .1 to .5
# Type: in vivo
# recorded.conditions: human, plasma, oral, 50 mg, single dose of 50.0 mg, read-out: geometric mean AUC0-inf
readout.label: AUC(0-inf)

Query :: What measured AUC(0-inf) goes with `OC[C@H]1O[C@@H](c2ccc(Cl)c(Cc3ccc(O[C@H]4CCOC4)cc3)c2)[C@H](O)[C@@H](O)[C@@H]1O` ?
Result :: 8.31 to 8.46 µM·h

###

# assay.summary: Study .3: single dose, cross-over, food effect study in healthy volunteers, pharmacokinetic parameters
# Assay type: in vivo, human
# recorded.conditions: human, plasma, oral, 50 mg, 50 mg single dose, Study .3/fasted; read-out: AUC0-inf Mean
readout.label: AUC(0-inf) (µM·h)
The response must be a number in µM·h with no trailing unit.

Query :: What measured AUC(0-inf) goes with `OC[C@H]1O[C@@H](c2ccc(Cl)c(Cc3ccc(O[C@H]4CCOC4)cc3)c2)[C@H](O)[C@@H](O)[C@@H]1O` ?
Result :: 8.51

###

# assay.summary: Study .4: 4-week treatment of diabetic patients, once daily, pharmacokinetic parameters
# Assay type: in vivo, human
# recorded.conditions: 10 mg single dose, Study .4, fasted; read-out: Cmax Max
readout.label: Cmax (nM)
The response must be a number in nM with no trailing unit.

Query :: What measured Cmax goes with OC[C@H]1O[C@@H](c2ccc(Cl)c(Cc3ccc(O[C@H]4CCOC4)cc3)c2)[C@H](O)[C@@H](O)[C@@H]1O [Compound (I.9)] ?
Result :: 796

###

# assay.summary: Study .3: single dose, cross-over, food effect study in healthy volunteers, pharmacokinetic parameters
# Assay type: in vivo, human
# recorded.conditions: human, plasma, oral, 50 mg, 50 mg single dose, Study .3/fasted; read-out: tmax gMean
readout.label: Tmax (h)
The response must be a number in h with no trailing unit.

Query :: What measured Tmax goes with `OC[C@H]1O[C@@H](c2ccc(Cl)c(Cc3ccc(O[C@H]4CCOC4)cc3)c2)[C@H](O)[C@@H](O)[C@@H]1O` ?
Result :: 1.29

###

# assay.summary: Study .1: single dose study in healthy volunteers, pharmacokinetic parameters
# Assay type: in vivo, human
# recorded.conditions: human, plasma, oral, 10 mg, 10 mg single dose, Study .1, fasted; read-out: tmax Median
readout.label: Tmax (h)
The response must be a number in h with no trailing unit.

Query :: What measured Tmax goes with `OC[C@H]1O[C@@H](c2ccc(Cl)c(Cc3ccc(O[C@H]4CCOC4)cc3)c2)[C@H](O)[C@@H](O)[C@@H]1O` ?
Result :: 1.5

###

# assay.summary: Study .4: 4-week treatment of diabetic patients, once daily, pharmacokinetic parameters
# Format: in vivo, human
# recorded.conditions: human, plasma, oral, 25 mg, 25 mg single dose, Study .4, fasted; read-out: tmax gMean
readout.label: Tmax (h)
The response must be a number in h with no trailing unit.

Query :: What measured Tmax goes with `OC[C@H]1O[C@@H](c2ccc(Cl)c(Cc3ccc(O[C@H]4CCOC4)cc3)c2)[C@H](O)[C@@H](O)[C@@H]1O` ?
Result :: 1.33

###

# assay.summary: Study .1: single dose study in healthy volunteers, pharmacokinetic parameters
# Format: in vivo, human
# recorded.conditions: human, plasma, oral, 2.5 mg, 2.5 mg single dose, Study .1, fasted; read-out: tmax Median
readout.label: Tmax (h)
The response must be a number in h with no trailing unit.

Query :: What measured Tmax goes with `OC[C@H]1O[C@@H](c2ccc(Cl)c(Cc3ccc(O[C@H]4CCOC4)cc3)c2)[C@H](O)[C@@H](O)[C@@H]1O` ?
Result :: 1.75

###

# assay.summary: Study .1: single dose study in healthy volunteers, pharmacokinetic parameters
# Assay type: in vivo, human
# recorded.conditions: human, plasma, oral, 10 mg, 10 mg single dose, Study .1, fasted; read-out: Cmax Median
readout.label: Cmax

Query :: What measured Cmax goes with OC[C@H]1O[C@@H](c2ccc(Cl)c(Cc3ccc(O[C@H]4CCOC4)cc3)c2)[C@H](O)[C@@H](O)[C@@H]1O [Compound (I.9)] ?
Result :: 239 nM

###

# assay.summary: Study .2: multiple rising dose trial in diabetic patients, once daily for 8 days, pharmacokinetic parameters
# Type: in vivo, human
# recorded.conditions: 2.5 mg once daily, steady state, Study .2, fasted; read-out: Cmax,ss Max
readout.label: Cmax
Answer by giving the amount and then stating its unit.

Query :: What measured Cmax goes with `OC[C@H]1O[C@@H](c2ccc(Cl)c(Cc3ccc(O[C@H]4CCOC4)cc3)c2)[C@H](O)[C@@H](O)[C@@H]1O` ?
Result :: 96.3 nM
